Where do the numbers come from? From PubChem BioAssay (NCI).

# System: ACHN renal
# Test name: NCI tumour cell line growth inhibition, 48 h; in the data active = GI50 below about 0.43 µM; inactive = the rest
Respond only with the outcome that fits, drawn from true (1) = active, false (0) = inactive

Request: Recorded call for "O=C(NC(=S)NNC(=S)NNc1ccccc1)c1ccccc1" ?
Result: false (0)

Request: Write down the call the test reported for this compound. Item: "Nc1c(C(=O)c2cccc(CCC3(O)CCCC3)c2)cnn1-c1ccc(F)cc1"
Result: false (0)

Request: Answer briefly: the call reported for "COC(=O)c1ccc2c(c1)C(=O)c1c-2n(CCCN)c(=O)c2cc([N+](=O)[O-])ccc12" in this assay.
Result: true (1)

Request: Field: outcome | Entry: "CN1CCN(Cc2ccc(NC(=O)c3nc4ccc5[nH]ncc5c4c4c3CCC4)cc2C(F)(F)F)CC1"
Result: false (0)
